The reader will find reported Plant response rating, Crabgrass, Large values listed item by item below.
test system: crabgrass, large (large crabgrass, Digitaria sanguinalis); test: Test C greenhouse herbicide test, pre- and postemergence; type: in vivo; details: Preemergence, 125 g ai/ha; scale 0 to 100, 0 is no effect, 100 is complete control
Lab note: record just the number, no unit beside it.

Tell me its Plant response rating, Crabgrass, Large given COC(=O)Oc1c(C)nn(C)c(=O)c1-c1c(C)sc2ccc(C)cc12 [Compound 80] as the entry.
40

Give Plant response rating, Crabgrass, Large for Cn1nc(Br)c(O)c(-c2cccc3ccccc23)c1=O [Compound 20]
15

// Input: Cc1nn(C)c(=O)c(-c2cccc3ccccc23)c1O [Compound 11] . Output its Plant response rating, Crabgrass, Large only.
40

New cases:
Return the recorded Plant response rating, Crabgrass, Large value; entry: Cc1nn(C)c(=O)c(-c2c(C)sc3ccc(Br)cc23)c1O [Compound 22]
0

Recall and state the measured Plant response rating, Crabgrass, Large for Cc1ccc2ccccc2c1-c1c(O)c(C(F)(F)F)nn(C)c1=O [Compound 102] .
30
